test system: BT-549; assay: NCI tumour cell line growth inhibition, 48 h
Activity calls are given as the source filed them. Cut-off read from the data, not from the text of the source: active = GI50 up to about 1.1 µM and inactive = higher.
Outcomes you can answer with include only these: true (active), false (inactive)

Input: Per the assay record, what outcome was assigned to CCCNC(=S)N/C=C1/C(=O)Oc2ccccc2C1=O ?
Output: false

Input: Record lookup: outcome of this test for COc1ccc(N2C(=O)/C(=C/c3ccc(N(CCC#N)CCC#N)cc3C)N=C2c2cc([N+](=O)[O-])ccc2Cl)cc1 ?
Output: false

Input: Which outcome was entered for the molecule COc1c2c(c(CC=C(C)C)c3oc(=O)c(-c4ccc(O)cc4)c(O)c13)OC(C)(C)C=C2 in this test?
Output: false

Input: Dear all, I need the recorded test outcome for Cc1ccc(Nc2nc3ccccc3nc2NS(=O)(=O)c2ccc(N)cc2)cc1 , thank you.
Output: false

Input: What call does the record list for CC(=O)Nn1c(Cc2ccc(Cl)cc2)nn(C)c1=O ?
Output: false

Input: Outcome logged for CCOS(=O)(=O)c1ccc(-c2c3nc(c(-c4ccc(S(=O)(=O)OCC)cc4)c4ccc([nH]4)c(-c4ccc(S(=O)(=O)OCC)cc4)c4nc(c(-c5ccc(S(=O)(=O)OCC)cc5)c5ccc2[nH]5)C=C4)C=C3)cc1 in this assay:
Output: false

Input: Test call for this molecule, please: COC(=O)C(Cc1c(C2Nc3ccccc3C2CC(NC(=O)CNC(C)=O)C(=O)OC)[nH]c2ccccc12)NC(=O)CNC(C)=O (stereo not drawn)
Output: false

Input: Kindly provide the recorded test outcome for the following molecule: CN1C(=O)c2cccc3cc([N+](=O)[O-])cc(c23)C1=O
Output: false

Input: Hi team, can someone confirm the assay call for O=C(CC(=O)c1ccncc1)c1ccccc1 ?
Output: false

Input: What did the test return for CC1=C2C3=C(C)C(=O)C(C)(C)CC[C@@]3(C)[C@]2(C)CCC(C)(C)C1=O ?
Output: false

Input: Test call for this molecule, please: COc1ccc2c(=O)c(-c3cc(OC)c(OC)cc3OC)coc2c1
Output: false

Input: Which outcome was assigned to Nc1n[c-](N)[n+](=O)c(N)c1NCO in this test?
Output: false

Input: Answer briefly: the call reported for CCOC(=O)/C1=C(\C)N(Cc2ccccc2)C(=O)c2ccccc2C(=O)c2c(O)ccc(O)c21 in this assay.
Output: true

Data provenance: ChEMBL document CHEMBL1201862
